// provenance: patent US20240383984A1

- subject-of-test: T1, human FcRH5 protein fragment (soluble) (human, UniProt Q96RD9 16-851)
- T1 construct: whole entry named; also called soluble human FcRH5; Human FcRH5 (BIACORE analyte)
- T1 sequence: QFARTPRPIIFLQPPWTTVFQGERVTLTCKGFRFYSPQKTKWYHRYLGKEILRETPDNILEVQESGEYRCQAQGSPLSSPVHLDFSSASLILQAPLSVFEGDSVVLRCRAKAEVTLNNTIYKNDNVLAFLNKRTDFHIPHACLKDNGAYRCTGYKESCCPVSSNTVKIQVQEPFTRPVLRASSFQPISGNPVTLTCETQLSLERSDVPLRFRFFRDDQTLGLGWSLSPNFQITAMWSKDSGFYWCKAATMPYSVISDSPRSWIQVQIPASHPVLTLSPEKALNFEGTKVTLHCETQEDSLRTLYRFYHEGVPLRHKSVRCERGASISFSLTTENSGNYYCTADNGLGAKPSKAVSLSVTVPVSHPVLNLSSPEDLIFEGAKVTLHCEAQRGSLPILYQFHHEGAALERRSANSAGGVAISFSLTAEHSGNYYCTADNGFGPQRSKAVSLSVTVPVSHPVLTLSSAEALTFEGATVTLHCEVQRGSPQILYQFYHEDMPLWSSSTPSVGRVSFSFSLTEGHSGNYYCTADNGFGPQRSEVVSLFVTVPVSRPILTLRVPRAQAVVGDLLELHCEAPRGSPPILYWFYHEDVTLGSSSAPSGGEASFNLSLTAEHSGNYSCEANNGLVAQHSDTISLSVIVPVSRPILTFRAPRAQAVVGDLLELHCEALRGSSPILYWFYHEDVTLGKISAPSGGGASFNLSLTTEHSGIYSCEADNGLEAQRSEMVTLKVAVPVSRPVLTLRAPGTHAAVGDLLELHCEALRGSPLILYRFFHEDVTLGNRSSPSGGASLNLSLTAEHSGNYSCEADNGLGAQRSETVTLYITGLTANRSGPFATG
- experiment-summary: SPR (BIACORE), IgG captured via anti-human IgG, FcRH5 protein fragment as analyte (100 and 500 nM)
Entries and their Kd
Your answer is read as nM, so omit the unit and give the number.

Solved cases (2 shown):
hu1G7.v1 heavy chain W52L with light chain of hu1G7.v1.4 (antibody, V domains shown, human IgG) VH: EVQLVESGPGLVKPSETLSLTCTVSGFSLTRFGVHWVRQPPGKGLEWLGVILRGGSTDYNAAFMSRLTISKDNSKNQVSLKLSSVTAADTAVYYCSNHYYGSSDYALDNWGQGTLVTVSS VL: DIQMTQSPSSLSASVGDRVTITCKASQDVRNLVVWFQQKPGKAPKLLIYSGSYRYSGVPSRFSGSGSGTDFTLTISSLQPEDFATYYCQQHYSPPYTFGQGTKVEIK; 92
hu1G7.v1 heavy chain W52F with light chain of hu1G7.v1.5 (antibody, V domains shown, human IgG) VH: EVQLVESGPGLVKPSETLSLTCTVSGFSLTRFGVHWVRQPPGKGLEWLGVIFRGGSTDYNAAFMSRLTISKDNSKNQVSLKLSSVTAADTAVYYCSNHYYGSSDYALDNWGQGTLVTVSS VL: DIQMTQSPSSLSASVGDRVTITCKASQDVSNIVVWFQQKPGKSPKLLIYSGYYRYTGVPSRFSGSGSGTDFTLTISSLQPEDFATYYCQQQFQPPYTFGQGTKVEIK; 47.5

With those in mind, consider the next binder.
Q: What does the data say about its Kd? Entry: hu1G7.v1 heavy chain W52F with light chain of hu1G7.v1.6 (antibody, V domains shown, human IgG) VH: EVQLVESGPGLVKPSETLSLTCTVSGFSLTRFGVHWVRQPPGKGLEWLGVIFRGGSTDYNAAFMSRLTISKDNSKNQVSLKLSSVTAADTAVYYCSNHYYGSSDYALDNWGQGTLVTVSS VL: DIQMTQSPSSLSASVGDRVTITCKASQDVSNIVVWFQQKPGKAPKLLIYSGYYRYSGVPSRFSGSGSGTDFTLTISSLQPEDFATYYCQQQYQPPYTFGQGTKVEIK
Result: 81.4
